tested_system: RSV postfusion F (postF), F ΔFP (Respiratory Syncytial Virus, UniProt P03420 26-513)
assay_summary: BLI, IgG on anti-human IgG sensor, 100 nM antigen, 1:1 fit
pKd values by entry
Please treat pKd as minus the base-10 logarithm of the molar concentration.

INSERT INTO results (binder, data_value) VALUES
  ('ADI-41531 (antibody, V domains shown, also called Ab 803; Antibody Number 803) VH: EVQLLESGGDLVQPGGSLRLSCAASGFTFFSYALNWVRRTPGKGLEWVSGISGSGGSTYYADSVKGRFTISRDNSKSTLYLQMNSLKVDDTAVYFCAKDFQHDYGDPYRSYYFDHWGQGTLVTVSS VL: DIQLTQSPSSLAASVGDRVTITCQASRDIRKSLNWYQVKPGKAPKLLISDASYLETGVPPRFSGSGFGTHFTFTISSLQPEDIATYYCQQYDNLPPPTFGGGTKVDIK', 9.42);

// switching to the query binder
Give the measured pKd of ADI-41456 (antibody, V domains shown, also called Ab 740; Antibody Number 740) VH: EVQLLESGGGLFHPGGSLTLSCVASGFTLSTYYMHWVRQAPGKGLVWVARINSDGGYTTYADSVKGRFTVSRDNAKNTLYLQMNSLRVEDTAVYYCAREWVEFDSWGQGTLVTVSS VL: NFMLTQPHSVSASPGKTVTISCTRSSGNIASNYVQWYQQRPGSSPTTVITEDNQRPSGVPDRFSGSIDSSSNSASLTISGLKTEDEADYYCQSYDSSTYVFGTGTKLTVL .
9.57
